target or system: Cannabinoid CB2 Receptor (Homo sapiens)
Construct: expressed in transfected cells
Sequence (P34972 whole entry): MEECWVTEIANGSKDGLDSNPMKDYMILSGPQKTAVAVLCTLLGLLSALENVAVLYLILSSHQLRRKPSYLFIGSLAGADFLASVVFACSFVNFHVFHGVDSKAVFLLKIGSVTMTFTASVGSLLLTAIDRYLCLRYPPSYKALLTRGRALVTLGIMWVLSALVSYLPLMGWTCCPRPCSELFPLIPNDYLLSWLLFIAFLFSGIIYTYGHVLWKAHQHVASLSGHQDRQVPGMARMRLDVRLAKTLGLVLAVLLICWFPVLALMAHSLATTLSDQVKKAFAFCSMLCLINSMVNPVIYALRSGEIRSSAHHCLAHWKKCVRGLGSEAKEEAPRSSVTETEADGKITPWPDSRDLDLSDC
test: Binding assay for CB2 agonists or inverse agonists (radioligand competition, membranes of transfected SK-N-MC cells)
test conditions: read-out: Cannabinoid CB2 Receptor Binding percent inhibition
readout name: inhibition at 0.2 µM (%)
Could you give me the number in %? Just the number is fine.

Ask | # query: inhibition at 0.2 µM of entry C[C@@H](NC(=O)c1nn(-c2ccc(Cl)cc2Cl)c2c1CNC/C2=C\c1ccc(F)cc1)c1ccccn1 [Cpd 139]
Reply | 16

Ask | # query: inhibition at 0.2 µM of entry CC(=O)N1C/C(=C\c2ccc(F)cc2)c2c(c(C(=O)NC(C)c3ccccn3)nn2-c2ccc(Cl)cc2)C1 (centres unmarked) [Cpd 80]
Reply | 0

Ask | # query: inhibition at 0.2 µM of entry O=C(NN1CC2CCCC2C1)c1nn(-c2ccc(Cl)cc2Cl)c2c1CNC/C2=C\c1ccc(F)cc1 (centres unmarked) [Cpd 90]
Reply | 15

Ask | # query: inhibition at 0.2 µM of entry CC(=O)N1C/C(=C\c2ccc(F)cc2)c2c(c(C(=O)N[C@H](C)C3CCCCC3)nn2-c2ccc(Cl)cc2Cl)C1 [Cpd 14]
Reply | 16

Ask | # query: inhibition at 0.2 µM of entry Cc1ccc(S(=O)(=O)N2C/C(=C\c3ccc(F)cc3)c3c(c(C(=O)N[C@H](C)c4ccccc4)nn3-c3ccc(Cl)cc3Cl)C2)cc1 [Cpd 18]
Reply | 48

Ask | # query: inhibition at 0.2 µM of entry COC(=O)N1C/C(=C\c2ccc(OC)cc2)c2c(c(C(=O)N[C@H](C)c3ccccc3)nn2-c2ccc(Cl)cc2Cl)C1 [Cpd 44]
Reply | 69

Ask | # query: inhibition at 0.2 µM of entry COC(=O)N1C/C(=C\c2ccc(F)cc2)c2c(c(C(=O)NC(C)c3ccccn3)nn2-c2ccc(Cl)cc2)C1 (centres unmarked) [Cpd 79]
Reply | 13

Ask | # query: inhibition at 0.2 µM of entry CCNC(=O)N1C/C(=C\c2ccc(F)cc2)c2c(c(C(=O)N[C@H](C)C3CCCCC3)nn2-c2ccc(Cl)cc2Cl)C1 [Cpd 32]
Reply | 6

Ask | # query: inhibition at 0.2 µM of entry CC(=O)N1C/C(=C\c2ccc(F)cc2)c2c(c(C(=O)NC(C)c3ccccn3)nn2-c2ccc(Cl)cc2Cl)C1 (centres unmarked) [Cpd 22]
Reply | 2

Ask | # query: inhibition at 0.2 µM of entry COc1ccc(/C=C2\CN(S(C)(=O)=O)Cc3c(C(=O)NN4CCCCC4)nn(-c4ccc(Cl)cc4Cl)c32)cc1 [Cpd 53]
Reply | 29

Ask | # query: inhibition at 0.2 µM of entry CC(=O)N1C/C(=C\c2ccc(F)cc2)c2c(c(C(=O)NN3CCCCC3)nn2-c2ccc(Cl)cc2Cl)C1 [Cpd 10]
Reply | 63

Ask | # query: inhibition at 0.2 µM of entry C[C@@H](NC(=O)c1nn(-c2ccc(Cl)cc2Cl)c2c1CN(S(C)(=O)=O)C/C2=C\c1ccc(F)cc1)C1CCCCC1 [Cpd 30]
Reply | 1

Ask | # query: inhibition at 0.2 µM of entry COc1ccc(/C=C2\CN(C(=O)OC(C)(C)C)Cc3c(C(=O)N[C@H](C)c4ccccc4)nn(-c4ccc(Cl)cc4Cl)c32)cc1 [Cpd 35]
Reply | 27

Ask | # query: inhibition at 0.2 µM of entry CC(=O)N1C/C(=C\c2ccc(F)cc2)c2c(c(C(=O)NN3CC4CCCC4C3)nn2-c2ccc(Cl)cc2Cl)C1 (centres unmarked) [Cpd 91]
Reply | 14
